Target: hBACE-1 (Homo sapiens, UniProt P56817)
Sequence (P56817 46-501): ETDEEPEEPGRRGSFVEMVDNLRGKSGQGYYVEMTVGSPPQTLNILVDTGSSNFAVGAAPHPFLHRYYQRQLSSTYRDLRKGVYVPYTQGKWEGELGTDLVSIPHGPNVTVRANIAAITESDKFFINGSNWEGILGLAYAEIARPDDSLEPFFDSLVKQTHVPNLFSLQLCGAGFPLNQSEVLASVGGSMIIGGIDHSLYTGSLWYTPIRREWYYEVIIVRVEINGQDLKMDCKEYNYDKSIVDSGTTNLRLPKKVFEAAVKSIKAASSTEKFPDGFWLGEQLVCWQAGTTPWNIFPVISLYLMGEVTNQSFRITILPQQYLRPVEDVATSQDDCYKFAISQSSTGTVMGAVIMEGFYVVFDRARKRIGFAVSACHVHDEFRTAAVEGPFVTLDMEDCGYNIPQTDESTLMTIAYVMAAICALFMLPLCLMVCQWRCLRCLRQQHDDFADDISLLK
Assay: biochemical
Conditions: IC50 ± SEM hBACE-1, n = 3
pIC50: −log10 of the molar value.
Measurement kind: pIC50

1) FC(F)(F)c1ccc(-c2nn(CN3CCN(Cc4ccccc4)CC3)c(=S)o2)cc1: 6.15
2) N#Cc1cccc(-c2nn(CN3CCN(Cc4ccccc4)CC3)c(=S)o2)c1: 6.19
3) S=c1oc(-c2ccccc2)nn1CN1CCN(Cc2ccccc2)CC1: 6.12
4) O=[N+]([O-])c1ccc(-c2nn(CN3CCN(Cc4ccccc4)CC3)c(=S)o2)cc1: 6.09
5) S=c1oc(-c2cccc(Cl)c2)nn1CN1CCN(Cc2ccccc2)CC1: 6.05
6) COc1cccc(-c2nn(CN3CCN(Cc4ccccc4)CC3)c(=S)o2)c1: 5.92
7) O=[N+]([O-])c1ccccc1-c1nn(CN2CCN(Cc3ccccc3)CC2)c(=S)o1: 5.93

###

As shown below, each of these compounds has a reported IC50 value.
Target: hAChE (Homo sapiens)
Assay: In vitro hAChE inhibition assay
Format: biochemical
Settings: hAChE inhibitory activity (good/moderate/poor), class in words
Measurement kind: IC50

1) S=c1oc(-c2cccc(Cl)c2)nn1CN1CCN(Cc2ccccc2)CC1: < 1000 nM
2) FC(F)(F)c1ccc(-c2nn(CN3CCN(Cc4ccccc4)CC3)c(=S)o2)cc1: 1000 to 2000 nM
3) S=c1oc(-c2ccccc2)nn1CN1CCN(Cc2ccccc2)CC1: < 1000 nM
4) Oc1ccc(-c2nn(CN3CCN(Cc4ccccc4)CC3)c(=S)o2)cc1: 1000 to 2000 nM
5) Nc1ccc(-c2nn(CN3CCN(Cc4ccccc4)CC3)c(=S)o2)cc1: 1000 to 2000 nM
6) O=[N+]([O-])c1ccc(-c2nn(CN3CCN(Cc4ccccc4)CC3)c(=S)o2)cc1: 1000 to 2000 nM
7) FC(F)(F)Oc1ccc(-c2nn(CN3CCN(Cc4ccccc4)CC3)c(=S)o2)cc1: 1000 to 2000 nM
8) COc1cccc(-c2nn(CN3CCN(Cc4ccccc4)CC3)c(=S)o2)c1: 1000 to 2000 nM
9) COc1ccc(-c2nn(CN3CCN(Cc4ccccc4)CC3)c(=S)o2)cc1: 1000 to 2000 nM
10) O=[N+]([O-])c1cc(-c2nn(CN3CCN(Cc4ccccc4)CC3)c(=S)o2)ccc1Cl: 1000 to 2000 nM
11) N#Cc1cccc(-c2nn(CN3CCN(Cc4ccccc4)CC3)c(=S)o2)c1: < 1000 nM
12) S=c1oc(-c2ccc(Cl)cc2)nn1CN1CCN(Cc2ccccc2)CC1: 1000 to 2000 nM

###

IC50 data for UniProt P81908 follow.
Measurement kind: IC50

1. S=c1oc(-c2ccccc2Br)nn1CN1CCN(Cc2ccccc2)CC1: > 10 µM
2. S=c1oc(-c2cccc(Cl)c2)nn1CN1CCN(Cc2ccccc2)CC1: > 10 µM
3. O=[N+]([O-])c1cc(-c2nn(CN3CCN(Cc4ccccc4)CC3)c(=S)o2)ccc1Cl: 1.94 µM
4. O=[N+]([O-])c1ccc(-c2nn(CN3CCN(Cc4ccccc4)CC3)c(=S)o2)cc1: > 10 µM
5. FC(F)(F)c1ccc(-c2nn(CN3CCN(Cc4ccccc4)CC3)c(=S)o2)cc1: 2.42 µM
6. FC(F)(F)Oc1ccc(-c2nn(CN3CCN(Cc4ccccc4)CC3)c(=S)o2)cc1: > 10 µM
7. S=c1oc(-c2ccc(Cl)cc2Cl)nn1CN1CCN(Cc2ccccc2)CC1: > 10 µM
8. Nc1ccc(-c2nn(CN3CCN(Cc4ccccc4)CC3)c(=S)o2)cc1: > 10 µM
9. S=c1oc(-c2ccc(Cl)cc2)nn1CN1CCN(Cc2ccccc2)CC1: > 10 µM

###

Target: hBChE (Equus caballus)
Sequence (P81908 whole entry): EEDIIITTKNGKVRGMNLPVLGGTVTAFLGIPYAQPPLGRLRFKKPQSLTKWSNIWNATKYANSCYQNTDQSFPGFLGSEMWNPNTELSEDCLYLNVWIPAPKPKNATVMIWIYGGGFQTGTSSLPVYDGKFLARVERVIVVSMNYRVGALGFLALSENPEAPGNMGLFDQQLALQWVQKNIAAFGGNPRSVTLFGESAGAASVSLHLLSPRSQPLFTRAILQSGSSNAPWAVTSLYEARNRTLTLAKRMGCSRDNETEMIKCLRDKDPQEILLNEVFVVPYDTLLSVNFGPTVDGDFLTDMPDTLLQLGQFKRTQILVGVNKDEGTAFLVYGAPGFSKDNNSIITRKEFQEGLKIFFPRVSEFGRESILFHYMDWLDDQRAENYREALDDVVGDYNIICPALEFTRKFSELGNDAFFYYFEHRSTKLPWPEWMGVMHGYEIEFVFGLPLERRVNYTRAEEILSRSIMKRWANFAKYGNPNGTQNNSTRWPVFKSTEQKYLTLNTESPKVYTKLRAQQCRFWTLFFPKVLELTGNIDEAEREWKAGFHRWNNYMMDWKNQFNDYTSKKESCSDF
Experiment: In vitro hBChE inhibition assay
Assay type: biochemical, human
pIC50: −log10 of the molar value.
As shown below, each of these compounds has a reported pIC50 value.
Measurement kind: pIC50

1. COc1cccc(-c2nn(CN3CCN(Cc4ccccc4)CC3)c(=S)o2)c1: < 5.00
2. N#Cc1cccc(-c2nn(CN3CCN(Cc4ccccc4)CC3)c(=S)o2)c1: 5.78
3. O=[N+]([O-])c1ccccc1-c1nn(CN2CCN(Cc3ccccc3)CC2)c(=S)o1: < 5.00
4. O=[N+]([O-])c1ccc(-c2nn(CN3CCN(Cc4ccccc4)CC3)c(=S)o2)c([N+](=O)[O-])c1: < 5.00
5. S=c1oc(-c2ccccc2)nn1CN1CCN(Cc2ccccc2)CC1: 5.80
6. Oc1ccc(-c2nn(CN3CCN(Cc4ccccc4)CC3)c(=S)o2)cc1: < 5.00
7. Oc1ccc(-c2nn(CN3CCN(Cc4ccccc4)CC3)c(=S)o2)c(O)c1: < 5.00
8. COc1ccc(-c2nn(CN3CCN(Cc4ccccc4)CC3)c(=S)o2)cc1: < 5.00

###

As shown below, each of these compounds has a reported Papp value.
Assay: in vitro
Details: PAMPA, pH 7.4
Measurement kind: Papp (×10⁻⁶ cm/s)

1. O=[N+]([O-])c1cc(-c2nn(CN3CCN(Cc4ccccc4)CC3)c(=S)o2)ccc1Cl: 4.86
2. S=c1oc(-c2ccccc2)nn1CN1CCN(Cc2ccccc2)CC1: 5.64
3. N#Cc1cccc(-c2nn(CN3CCN(Cc4ccccc4)CC3)c(=S)o2)c1: 6.13
4. FC(F)(F)c1ccc(-c2nn(CN3CCN(Cc4ccccc4)CC3)c(=S)o2)cc1: 5.02

###

Molecular target: hAChE (Homo sapiens, UniProt P22303)
Sequence (P22303 32-617 isoform P22303-2 limits assumed): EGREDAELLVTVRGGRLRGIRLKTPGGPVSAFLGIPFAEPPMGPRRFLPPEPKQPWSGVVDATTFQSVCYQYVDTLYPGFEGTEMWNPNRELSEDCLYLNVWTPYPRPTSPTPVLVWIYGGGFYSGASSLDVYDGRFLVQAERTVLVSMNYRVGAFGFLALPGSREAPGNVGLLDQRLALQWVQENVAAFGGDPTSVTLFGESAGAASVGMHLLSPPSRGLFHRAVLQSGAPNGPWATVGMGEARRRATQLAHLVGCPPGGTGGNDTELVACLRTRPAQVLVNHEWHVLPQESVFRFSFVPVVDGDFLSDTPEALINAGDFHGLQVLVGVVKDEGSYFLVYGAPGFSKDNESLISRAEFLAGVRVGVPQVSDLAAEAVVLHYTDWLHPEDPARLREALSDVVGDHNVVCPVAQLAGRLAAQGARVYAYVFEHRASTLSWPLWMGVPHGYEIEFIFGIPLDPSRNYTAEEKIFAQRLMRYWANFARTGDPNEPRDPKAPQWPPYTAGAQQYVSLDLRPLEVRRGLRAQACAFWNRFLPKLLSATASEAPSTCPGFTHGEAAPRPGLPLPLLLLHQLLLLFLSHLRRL
Assay: In vitro hAChE inhibition assay
Format: biochemical
Details: IC50 ± SEM hAChE, n = 3
As shown below, each of these molecules has a reported IC50 value.
Measurement kind: IC50 (nM)

1) Oc1ccc(-c2nn(CN3CCN(Cc4ccccc4)CC3)c(=S)o2)cc1: 1220
2) S=c1oc(-c2ccccc2Br)nn1CN1CCN(Cc2ccccc2)CC1: 2410
3) S=c1oc(-c2cccc(Cl)c2)nn1CN1CCN(Cc2ccccc2)CC1: 1420
4) Nc1ccc(-c2nn(CN3CCN(Cc4ccccc4)CC3)c(=S)o2)cc1: 1220
5) O=[N+]([O-])c1cc(-c2nn(CN3CCN(Cc4ccccc4)CC3)c(=S)o2)ccc1Cl: 1140
6) O=[N+]([O-])c1ccccc1-c1nn(CN2CCN(Cc3ccccc3)CC2)c(=S)o1: 1890
7) S=c1oc(-c2ccc(Cl)cc2Cl)nn1CN1CCN(Cc2ccccc2)CC1: 2110
8) FC(F)(F)c1ccc(-c2nn(CN3CCN(Cc4ccccc4)CC3)c(=S)o2)cc1: 1320
9) Oc1ccc(-c2nn(CN3CCN(Cc4ccccc4)CC3)c(=S)o2)c(O)c1: 1790
10) S=c1oc(-c2ccc(Cl)cc2)nn1CN1CCN(Cc2ccccc2)CC1: 1260
11) COc1cccc(-c2nn(CN3CCN(Cc4ccccc4)CC3)c(=S)o2)c1: 1940
12) S=c1oc(-c2ccccc2)nn1CN1CCN(Cc2ccccc2)CC1: 907
13) O=[N+]([O-])c1ccc(-c2nn(CN3CCN(Cc4ccccc4)CC3)c(=S)o2)cc1: 1110
14) COc1ccc(-c2nn(CN3CCN(Cc4ccccc4)CC3)c(=S)o2)cc1: 1530
15) FC(F)(F)Oc1ccc(-c2nn(CN3CCN(Cc4ccccc4)CC3)c(=S)o2)cc1: 1340
16) N#Cc1cccc(-c2nn(CN3CCN(Cc4ccccc4)CC3)c(=S)o2)c1: 1080
17) O=[N+]([O-])c1ccc(-c2nn(CN3CCN(Cc4ccccc4)CC3)c(=S)o2)c([N+](=O)[O-])c1: 1420

###

Target: hBACE-1 (Homo sapiens)
Assay: biochemical
Details: IC50 ± SEM hBACE-1, n = 3
pIC50: −log10 of the molar value.
As shown below, each of these compounds has a reported pIC50 value.
Measurement kind: pIC50

1. S=c1oc(-c2ccc(Cl)cc2)nn1CN1CCN(Cc2ccccc2)CC1 [SD-1]: 6.03
2. S=c1oc(-c2ccccc2Br)nn1CN1CCN(Cc2ccccc2)CC1 [SD-16]: 5.74
3. COc1ccc(-c2nn(CN3CCN(Cc4ccccc4)CC3)c(=S)o2)cc1 [SD-13]: 5.87
4. S=c1oc(-c2ccc(Cl)cc2Cl)nn1CN1CCN(Cc2ccccc2)CC1 [SD-9]: 5.85
5. FC(F)(F)Oc1ccc(-c2nn(CN3CCN(Cc4ccccc4)CC3)c(=S)o2)cc1 [SD-3]: 5.95
6. O=[N+]([O-])c1cc(-c2nn(CN3CCN(Cc4ccccc4)CC3)c(=S)o2)ccc1Cl [SD-14]: 6.09
7. Oc1ccc(-c2nn(CN3CCN(Cc4ccccc4)CC3)c(=S)o2)c(O)c1 [SD-17]: 5.67
8. O=[N+]([O-])c1ccc(-c2nn(CN3CCN(Cc4ccccc4)CC3)c(=S)o2)c([N+](=O)[O-])c1 [SD-15]: 5.84
